Each entry below carries its recorded inhibition.
Target: N-glycosylase/DNA lyase (Homo sapiens) (UniProt O15527);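 further: OGG1 cleavage of a quenched duplex DNA oligonucleotide, coupled to APE1 for strand incision, read as fluorescence at 594 nm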
Sequence (O15527 whole entry): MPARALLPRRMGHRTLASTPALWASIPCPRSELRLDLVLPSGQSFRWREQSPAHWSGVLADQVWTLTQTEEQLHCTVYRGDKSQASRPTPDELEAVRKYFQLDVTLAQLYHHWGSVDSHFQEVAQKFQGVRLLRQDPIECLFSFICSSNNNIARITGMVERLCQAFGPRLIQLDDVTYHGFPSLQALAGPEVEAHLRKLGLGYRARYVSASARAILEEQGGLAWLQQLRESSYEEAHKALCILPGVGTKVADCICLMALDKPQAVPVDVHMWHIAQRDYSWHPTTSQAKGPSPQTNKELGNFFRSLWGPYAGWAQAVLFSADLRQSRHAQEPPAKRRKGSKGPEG
Settings: Compound Concentration 10.0 uM, Hit No
Description: Inhibition of OGG1 by quantifying inhibition of OGG1-mediated cleavage and dissociation of quenched duplex DNA oligonucleotides, measured as fluorescence at 594 nm. To generate a functional strand incision and increase turn-over this assay is coupled to APE1.
Property: inhibition (%)

compound="CC(C)NCC(O)COc1ccc(CCOCC2CC2)cc1 (stereo not given)" property=inhibition value_units=% recorded_measurement=-0.494
compound=c1ccc2oc(-c3csc(C4CCN(Cc5nc6ncccc6[nH]5)CC4)n3)cc2c1 property=inhibition value_units=% recorded_measurement=2.49
compound=C[C@@H]1CN(c2ncc(Cl)c(Nc3ccc4c(c3)n(CCC(C)(C)O)c(=O)n4C)n2)C[C@H](C)C1(F)F property=inhibition value_units=% recorded_measurement=-2.08
compound=Cn1cncc1[C@](O)(COc1ccc(C#N)cc1-c1ccc(OC(F)(F)F)cc1)c1ccc(C#N)cc1 property=inhibition value_units=% recorded_measurement=7.95
compound=Cc1nn(C)c2nc(NNC(=O)Nc3cc(Cl)nc(Cl)c3)cc(C(C)C)c12 property=inhibition value_units=% recorded_measurement=-2.44
compound=O=C(NCCCn1ccnc1)c1cc2nc(-c3ccccc3)cc(-c3ccccc3)n2n1 property=inhibition value_units=% recorded_measurement=-1.93
compound=CC(=O)[C@H]1CC[C@H]2[C@@H]3CC[C@H]4C[C@H](O)CC[C@]4(C)[C@H]3CC[C@]12C property=inhibition value_units=% recorded_measurement=7.89
compound=C(#Cc1cccc(CN2CCOCC2)c1)CCN1CCCCC1 property=inhibition value_units=% recorded_measurement=-4.46
compound=CCNC(=O)[C@H]1O[C@@H](n2cnc3c(N)nc(NCCc4ccc(CCC(=O)O)cc4)nc32)[C@H](O)[C@@H]1O property=inhibition value_units=% recorded_measurement=-9.97
compound=COc1ccc(Br)cc1S(=O)(=O)NC(=O)/C=C/c1ccccc1Cc1ccc2ccccc2c1 property=inhibition value_units=% recorded_measurement=30.2
compound=C=CCN1C[C@H](C)N([C@H](c2ccc(C(=O)N(CC)CC)cc2)c2cccc(O)c2)C[C@H]1C property=inhibition value_units=% recorded_measurement=-6.71
compound=CC(=O)Nc1cccc2c1c(Sc1ccc(Cl)cc1)c(C)n2CC(=O)O property=inhibition value_units=% recorded_measurement=3.49
compound=CC1(C)C(=O)C(C)(C)c2cc(C(=O)Nc3ccc(C(=O)O)cc3)ccc21 property=inhibition value_units=% recorded_measurement=9.87
compound=Cc1ccc2nc(CNCCCOc3ccccc3)cc(O)c2c1 property=inhibition value_units=% recorded_measurement=11.7
compound=COc1c(Nc2ccc(S(C)(=O)=O)nc2C)ncnc1OC1CCN(C(=O)OC(C)C)CC1 property=inhibition value_units=% recorded_measurement=-1.26

###

Target: DNA-3-methyladenine glycosylase (Homo sapiens)
Details: Compound Concentration 10.0 uM, Hit No
Description: Inhibition of MPG by quantifying inhibition of MPG-mediated cleavage and dissociation of quenched duplex DNA oligonucleotides, measured as fluorescence at 594 nm. To generate a functional strand incision and increase turn-over this assay is coupled to APE1.
Property: inhibition (%)

sample_smiles=Cc1c(C(=O)NN2CCCCC2)nn(-c2ccc(Cl)cc2Cl)c1-c1ccc(Cl)cc1 target_of_assay="DNA-3-methyladenine glycosylase (Homo sapiens)" property=inhibition value_units=% recorded_measurement=15.3
sample_smiles=C=CC(=O)Nc1ccc2[nH]c(=O)n(C3CCN(C(=O)c4ccc(-c5nc6cc[nH]c(=O)c6cc5-c5ccccc5)cc4)CC3)c2c1 target_of_assay="DNA-3-methyladenine glycosylase (Homo sapiens)" property=inhibition value_units=% recorded_measurement=-2.18
sample_smiles=COc1ccccc1/C=N/NC(=O)COc1ccc(Cl)cc1C target_of_assay="DNA-3-methyladenine glycosylase (Homo sapiens)" property=inhibition value_units=% recorded_measurement=9.76
sample_smiles=CCCCC1=NC2(CCCC2)C(=O)N1Cc1ccc(-c2ccccc2-c2nnn[nH]2)cc1 target_of_assay="DNA-3-methyladenine glycosylase (Homo sapiens)" property=inhibition value_units=% recorded_measurement=12.4
sample_smiles=O=S(=O)(Nc1nnc2cc(OCC34CC5CC(CC(C5)C3)C4)c(C3CC3)cn12)C1CC1 target_of_assay="DNA-3-methyladenine glycosylase (Homo sapiens)" property=inhibition value_units=% recorded_measurement=62.1

###

Target: UniProt:Q969S2
Sequence (Q969S2 whole entry): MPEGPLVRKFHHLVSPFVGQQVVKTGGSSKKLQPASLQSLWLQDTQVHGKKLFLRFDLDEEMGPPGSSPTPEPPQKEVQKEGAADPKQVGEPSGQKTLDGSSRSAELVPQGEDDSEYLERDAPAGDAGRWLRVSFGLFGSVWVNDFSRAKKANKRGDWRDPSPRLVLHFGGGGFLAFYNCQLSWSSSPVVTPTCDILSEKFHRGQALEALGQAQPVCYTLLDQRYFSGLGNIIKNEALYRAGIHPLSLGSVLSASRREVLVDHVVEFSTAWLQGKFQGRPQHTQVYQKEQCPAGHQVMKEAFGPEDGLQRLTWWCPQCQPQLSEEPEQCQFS
Settings: Compound Concentration 10.0 uM, Hit No
Description: Inhibition of NEIL2 by quantifying inhibition of NEIL2-mediated cleavage and dissociation of quenched duplex DNA oligonucleotides, measured as fluorescence at 594 nm.
Property: inhibition (%)

sample_smiles=CCN(c1ccccc1)c1cc(NC)[n+](C)c(C)n1 target_of_assay=UniProt:Q969S2 value_units=% recorded_measurement=4.75
sample_smiles=O=C(O)CC1CCC2(CC1)CCN(c1cc(OC(F)(F)F)ccc1Cl)CC2 target_of_assay=UniProt:Q969S2 value_units=% recorded_measurement=7.5
sample_smiles=O=C(NCCN1CCOCC1)c1ccc2c(c1)C(=O)c1ccc(Nc3ccc(F)c(NC(=O)c4ccccc4)c3)cc1CC2 target_of_assay=UniProt:Q969S2 value_units=% recorded_measurement=-4.66
sample_smiles=O=c1ccc2c(OCCCCc3ccccc3)c3ccoc3cc2o1 target_of_assay=UniProt:Q969S2 value_units=% recorded_measurement=2.71
sample_smiles=C[C@H](NC(=O)CNC(=O)c1cccc(Cl)c1)c1ccccc1 target_of_assay=UniProt:Q969S2 value_units=% recorded_measurement=-8.97
sample_smiles=O=C(Nc1ccc(C(O)(C(F)(F)F)C(F)(F)F)cc1)c1ccc(C(F)(F)F)cc1 target_of_assay=UniProt:Q969S2 value_units=% recorded_measurement=-7.89
sample_smiles=FC(F)(F)c1ccc2c(c1)nc(-c1cccnc1)n2C1CC1 target_of_assay=UniProt:Q969S2 value_units=% recorded_measurement=-9.67
sample_smiles=Cc1cc(OCCC(C)(C)O)cc(C)c1-c1ccc(F)c2c1CC[C@H]2Oc1ccc2c(c1)OC[C@H]2CC(=O)O target_of_assay=UniProt:Q969S2 value_units=% recorded_measurement=-1.76
sample_smiles=CCCn1c(=O)c2[nH]c(C3CCCC3)nc2n(CCC)c1=O target_of_assay=UniProt:Q969S2 value_units=% recorded_measurement=1.01
sample_smiles=CC(C)c1noc(N2CCC(COc3ccc(-c4ccc(S(C)(=O)=O)cc4)nc3)CC2)n1 target_of_assay=UniProt:Q969S2 value_units=% recorded_measurement=5.01
sample_smiles=CCOC(=O)N1CCC(c2cc(O)n3nc(C)c(-c4ccc(F)cc4)c3n2)CC1 target_of_assay=UniProt:Q969S2 value_units=% recorded_measurement=2.71
sample_smiles=CNC(=O)c1cc(C(=O)N[C@H]2[C@@H]3COC[C@@H]32)cc2c1O[C@H](CF)[C@H]2c1ccccc1 target_of_assay=UniProt:Q969S2 value_units=% recorded_measurement=5.12

###

Each entry below carries its recorded inhibition.
Molecular target: Endonuclease 8-like 1 (Homo sapiens) (UniProt Q96FI4);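 further: fluorescence at 594 nm from quenched duplex DNA oligonucleotides released by NEIL1 cleavage and strand separation, reported as reduction of this enzyme activity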
Sequence (Q96FI4 whole entry): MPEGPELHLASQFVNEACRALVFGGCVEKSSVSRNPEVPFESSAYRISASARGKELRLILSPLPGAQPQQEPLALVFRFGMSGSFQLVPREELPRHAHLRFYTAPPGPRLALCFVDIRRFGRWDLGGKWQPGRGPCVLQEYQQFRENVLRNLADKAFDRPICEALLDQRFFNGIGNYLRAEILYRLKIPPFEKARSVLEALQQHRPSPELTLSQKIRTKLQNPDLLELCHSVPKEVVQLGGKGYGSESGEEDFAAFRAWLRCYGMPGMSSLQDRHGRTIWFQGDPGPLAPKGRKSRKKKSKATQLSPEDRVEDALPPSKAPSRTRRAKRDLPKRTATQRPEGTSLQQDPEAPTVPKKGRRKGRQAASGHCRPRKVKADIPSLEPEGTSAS
Conditions: Compound Concentration 10.0 uM, Hit No
Description: Inhibition of NEIL1 by quantifying inhibition of NEIL1-mediated cleavage and dissociation of quenched duplex DNA oligonucleotides, measured as fluorescence at 594 nm.
Where a SMILES comes first, the peptide text is derived from it. [ ]: non-standard residue; d: D form. Arg(Me) = CNC(=N)NCCC[C@H](N)C(=O)O; d3Pal = N[C@H](Cc1cccnc1)C(=O)O; d4Pal = N[C@H](Cc1ccncc1)C(=O)O; azaGly = NNC(=O)O
Property: inhibition (%)

compound=C[C@H](NC(=O)c1cnc2n1[C@](C)(Cc1ccc(C#N)cc1)C(=O)N2c1cc(Cl)c(F)c(Cl)c1)C(=O)NC1(c2ccccn2)CC1 recorded_measurement=5.16
compound=Cn1ncnc1COc1nn2c(-c3cc(F)ccc3F)nnc2cc1C(C)(C)C recorded_measurement=1.64
compound=CCCCOCCOc1nc(-c2ccc(C(=O)O)c(F)c2)sc1C recorded_measurement=6.68
compound=CS(=O)(=O)NC[C@H]1CC[C@H](Nc2nc3c(s2)CCSc2ccccc2-3)CC1 recorded_measurement=-5.25
compound=C[C@H](NC(=O)CNC(=O)c1cccc(Cl)c1)c1ccccc1 recorded_measurement=-1.54
compound=COc1ccccc1Nc1nc(-c2nn(Cc3c(F)cc(OCCCO)cc3F)c3ccccc23)ncc1OC recorded_measurement=-6.35
compound=NC[C@H](O)c1ccc(O)c(O)c1 recorded_measurement=2.61
compound=CCOC(=O)C1=C[C@]2(CC)CCCN3CCc4c(n1c1ccccc41)[C@@H]32 recorded_measurement=2.53
compound="NC(CCP(=O)(O)O)C(=O)O (racemic)" recorded_measurement=0.0927
compound=CC1(C)CC(=O)c2c(SCCO)sc(-c3nccs3)c2C1 recorded_measurement=-2.21
compound=CCO[C@H](COc1ccc(C(F)(F)F)cc1)CSc1ccc(OCC(=O)O)c(C)c1 recorded_measurement=-4.99
compound=O=C(O)CCc1ccc(NCc2cccc(Oc3ccccc3)c2)cc1 recorded_measurement=-7.7
compound=C[C@H](CCOc1cccc(CC(=O)O)c1)N(Cc1cccc(C(F)(F)F)c1Cl)CC(c1ccccc1)c1ccccc1 recorded_measurement=-4.38
compound=CC(C)C(=O)Nc1n[nH]c2cc(-c3cccc(NS(=O)(=O)C4CC4)c3)ccc12 recorded_measurement=4.76
compound=Cc1nc(-c2ccc(C(F)(F)F)cc2)sc1COc1ccc([C@H](CC(=O)O)c2ccon2)cc1 recorded_measurement=3.95
compound=CCCc1nc2c(C)cc(-c3nc4ccccc4n3C)cc2n1Cc1ccc(-c2ccccc2C(=O)O)cc1 recorded_measurement=15.1
compound=CCNC(=O)N1CCCN(c2ccc(C(=O)NCCc3ccc(Cl)cc3Cl)cc2NC(=O)c2cccc(Cl)c2)CC1 recorded_measurement=3.27
compound=COc1ccc(S(=O)(=O)N2C(=O)[C@@](c3ccccc3OC)(N3C[C@H](O)C[C@H]3C(=O)N(C)C)c3cc(Cl)ccc32)c(OC)c1 recorded_measurement=2.68
compound=Cc1cnc(-c2cc(Cl)ccc2F)cc1-n1c(=O)n(CC(N)=O)c2cnccc21 recorded_measurement=-5.82
compound=COc1ccc(S(=O)(=O)N2c3ccc(Cl)cc3[C@](O)(c3ccccc3Cl)[C@@H]2C(=O)N2CCC[C@H]2C(N)=O)cc1OC recorded_measurement=-2.72
compound="CNC(=N)NCCC[C@H](NC(=O)[C@H](CC(C)C)NC(=O)NNC(=O)[C@H](Cc1ccccc1)NC(=O)[C@H](CO)NC(=O)[C@H](CC(N)=O)NC(=O)[C@@H](Cc1cccnc1)NC(=O)[C@H](N)Cc1ccc(O)cc1)C(=O)NCC(N)=O (H-[dY][d3Pal]NSF[azaGly]L[Arg(Me)]G-NH2)" recorded_measurement=-0.139
compound="CNC(=N)NCCC[C@H](NC(=O)[C@H](CC(C)C)NC(=O)NNC(=O)[C@H](Cc1ccccc1)NC(=O)[C@H](CO)NC(=O)[C@H](CC(N)=O)NC(=O)[C@@H](Cc1ccncc1)NC(=O)[C@H](N)Cc1ccc(O)cc1)C(=O)N[C@@H](Cc1ccccc1)C(N)=O (H-[dY][d4Pal]NSF[azaGly]L[Arg(Me)]F-NH2)" recorded_measurement=-4.68
compound=O=C(O)Cc1cccc(OCCCN(Cc2cccc(C(F)(F)F)c2Cl)CC(c2ccccc2)c2ccccc2)c1 recorded_measurement=-4.83
compound=CSCC[C@H](NC(=O)[C@H](Cc1ccc(O)cc1)NC(=O)[C@H](CCCCN)NC(=O)[C@@H](N)Cc1c[nH]c2ccccc12)C(=O)N[C@H](C(=O)N[C@H](CCSC)C(N)=O)C(C)C recorded_measurement=13.1
compound=CN(C)C(=O)c1sc2nc(N3CCC(S(C)(=O)=O)CC3)cc(C(F)(F)F)c2c1N recorded_measurement=-3.24
compound=CC(=O)NCCc1c(Cc2ccccc2)[nH]c2ccccc12 recorded_measurement=4.1
compound=Clc1cccc(-n2nnnc2NCc2ccccc2Oc2ccccn2)c1Cl recorded_measurement=4.75
compound=O=C(O)CC1CCC2(CC1)CCN(c1cc(OC(F)(F)F)ccc1Cl)CC2 recorded_measurement=3.8
compound=O=C1c2cccc3c2[C@H](CCC3)CN1[C@@H]1CN2CCC1CC2 recorded_measurement=-2.96
compound=Nc1ccc(C(=O)Nc2cccc(-c3nc(N4CCOCC4)c4oc5ncccc5c4n3)c2)cn1 recorded_measurement=-5.94
compound=CSc1nc(NC2CCCC2)c([N+](=O)[O-])c(NC2CCCC2)n1 recorded_measurement=2.61
compound=CC[C@@H]1CN(C(=O)NCC(F)(F)F)C[C@@H]1c1cnc2cnc3[nH]ccc3n12 recorded_measurement=4.1
compound="c1ccc(C2CN3CCC2CC3)cc1 (stereo not drawn)" recorded_measurement=0.158
